# experiment-summary: Bupivacaine PK after local infiltration, noncompartmental analysis (PLAY phase 3 trial, NCT03682302)
# Set-up: species or system human
# stated-conditions: human, in vivo; age group 1 (12 to <17 years), spine surgery; local infiltration, liposomal bupivacaine 4 mg/kg (n = 15) or bupivacaine HCl 2 mg/kg (n = 15); read-out: Cmax, Geometric mean
Where a name gives a salt, the structure may show the parent alone.
metric-name: Cmax (ng/mL)
Numbers only; they are read as ng/mL.

Sample CCCCN1CCCCC1C(=O)Nc1c(C)cccc1C (stereo not shown) [bupivacaine HCl, bupivacaine hydrochloride] ; Cmax observed: 488

----------
# experiment-summary: Bupivacaine PK after local infiltration, noncompartmental analysis (PLAY phase 3 trial, NCT03682302)
# Design: species or system human
# stated-conditions: human, in vivo, 2 mg/kg, t1/2, Geometric mean
Where a name gives a salt, the structure may show the parent alone.
metric-name: half-life
Kindly write the number and append the unit.

Sample CCCCN1CCCCC1C(=O)Nc1c(C)cccc1C (stereo not shown) [bupivacaine HCl, bupivacaine hydrochloride] ; half-life observed: 7.4 h
